Recorded pIC50 values for a group of compounds are listed next.
- TARGET_SYSTEM: UniProt Q08345
- Sequence (Q08345 19-876 isoform Q08345-2 limits assumed): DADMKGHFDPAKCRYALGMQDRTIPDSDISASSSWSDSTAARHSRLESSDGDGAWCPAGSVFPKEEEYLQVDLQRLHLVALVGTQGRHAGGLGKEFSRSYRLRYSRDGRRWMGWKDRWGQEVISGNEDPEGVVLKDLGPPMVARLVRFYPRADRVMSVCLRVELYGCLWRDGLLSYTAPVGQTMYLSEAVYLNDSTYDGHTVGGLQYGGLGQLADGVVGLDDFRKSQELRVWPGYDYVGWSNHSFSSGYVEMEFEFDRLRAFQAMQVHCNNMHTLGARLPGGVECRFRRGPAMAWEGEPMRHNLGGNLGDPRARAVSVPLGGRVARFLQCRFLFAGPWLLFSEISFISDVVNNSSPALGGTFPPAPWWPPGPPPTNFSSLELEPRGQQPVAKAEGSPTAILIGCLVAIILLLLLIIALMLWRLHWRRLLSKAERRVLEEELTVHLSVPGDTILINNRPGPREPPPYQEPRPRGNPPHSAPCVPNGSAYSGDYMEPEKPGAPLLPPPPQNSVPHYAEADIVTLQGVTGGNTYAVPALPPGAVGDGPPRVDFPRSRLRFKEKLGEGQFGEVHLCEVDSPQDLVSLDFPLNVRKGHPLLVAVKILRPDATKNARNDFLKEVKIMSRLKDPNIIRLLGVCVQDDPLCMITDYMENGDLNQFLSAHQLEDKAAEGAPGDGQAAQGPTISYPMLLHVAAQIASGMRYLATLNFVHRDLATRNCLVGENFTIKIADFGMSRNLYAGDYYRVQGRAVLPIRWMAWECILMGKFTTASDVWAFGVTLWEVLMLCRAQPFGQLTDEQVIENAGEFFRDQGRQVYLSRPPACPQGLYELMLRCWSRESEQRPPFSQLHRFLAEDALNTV
- TEST_NAME: Evaluation of DDR1 kinase inhibition (LANCE Ultra TR-FRET kinase assay)
- Assay type: biochemical
- Set-up: purchased Carna Biosciences 08-113
- ASSAY_SETUP: DDR1 protein 0.5 nM, LANCE Ultra ULight-poly GAT substrate, 2 hours at room temperature, duplicate; read-out: DDR-1 IC50
pIC50: −log10 of the molar value. Counter-ions that a name gives are not always drawn.
MEASURED_ATTRIBUTE: pIC50

COMPOUND: CC(C)(C)NC(=O)Cn1nc(C2CN(C(=O)c3ccnc(N)c3)C2)c2c(F)cc(F)cc21
OBSERVED_VALUE: 7.96
//
COMPOUND: Cc1ccc2c(c1)c(C1CN(C(=O)c3ccnc(N)n3)C1)nn2CC(=O)N1CCC[C@H]1C(F)(F)F
OBSERVED_VALUE: 8.64
//
COMPOUND: Cc1c(C(=O)N2CC(c3nn(CC(=O)N4CCC[C@H]4C(F)(F)F)c4cc(F)cc(F)c34)C2)ccnc1N [Compound E-77, hydrochloride]
OBSERVED_VALUE: 8.46
//
COMPOUND: Nc1nccc(C(=O)N2CC(c3nn(CC(=O)N4CCC[C@H]4C(F)(F)F)c4ccccc34)C2)c1F
OBSERVED_VALUE: 8.55
